Parameter pIC50, tested on Serine/threonine-protein kinase mTOR (Homo sapiens), listed per item.
pIC50: −log10 of the molar value.

Example results:
>  <Record smiles>
CC(C)c1cc(C(C)C)c(S(=O)(=O)N2CCN(Cn3cc4c(=O)oc5ccccc5c4n3)CC2)c(C(C)C)c1

>  <Result>
< 5.00

$$$$
>  <Record smiles>
O=c1oc2ccccc2c2nn(CN3CCN(S(=O)(=O)c4ccc(F)cc4)CC3)cc12

>  <Result>
5.04

$$$$

For the next question, use this compound.
Can you share its pIC50? I mean this compound: O=c1cc(N2CCOCC2)oc2c(-c3ccccc3)cccc12
< 5.00
